SYSTEM UNDER TEST: T1, HLA-A*02:01 (peptide-receptive MHC class I monomer after UV cleavage of the UV-sensitive ligand) (human)
T1 construct: MHC monomers loaded by UV-ligand exchange and captured on streptavidin plates
ASSAY OVERVIEW: UV ligand-exchange ELISA; exchange yield grade (+ >=10%, ++ >=20%, +++ >=50%, ++++ >=75%)
Listed next: entries and their corresponding peptide exchange yield.

Consider the reported peptide exchange yield for these binders:
BINDER | ASSAY METRIC | RESULT
GLATIRAYL [GLATIRAYL (SEQ ID NO: 86)] | peptide exchange yield | 50 to 75%
KIIDTAGLSEA [KIIDTAGLSEA (SEQ ID NO: 291)] | peptide exchange yield | 50 to 75%
KLYDEESLL [KLYDEESLL (SEQ ID NO: 31)] | peptide exchange yield | ≥ 75%
SLLAANNLL [SLLAANNLL (SEQ ID NO: 289)] | peptide exchange yield | ≥ 75%
ALLELENSV [ALLELENSV (SEQ ID NO: 219)] | peptide exchange yield | 20 to 50%

Look up peptide exchange yield for this binder: SLSSERYYL [SLSSERYYL (SEQ ID NO: 35)]
50 to 75%

peptide exchange yield lookup needed for GILQLVESV [GILQLVESV (SEQ ID NO: 180)] , thanks.
50 to 75%

Fill in the blank: the reported peptide exchange yield of VLFETVLTI [VLFETVLTI (SEQ ID NO: 183)] is ____.
50 to 75%

What does the record list as peptide exchange yield for KVLEMETTV [KVLEMETTV (SEQ ID NO: 247)] ?
50 to 75%

What measured peptide exchange yield goes with YLQDLVERA [YLQDLVERA (SEQ ID NO: 42)] ?
≥ 75%

# peptide exchange yield lookup, item ALVPTPALFYL [ALVPTPALFYL (SEQ ID NO: 240)]
50 to 75%

# query: peptide exchange yield of entry FLNSVIVDL [FLNSVIVDL (SEQ ID NO: 40)]
≥ 75%

Quick check: peptide exchange yield of FLMDDNMSNTL [FLMDDNMSNTL (SEQ ID NO: 83)] ?
50 to 75%

GET /values?readout=peptide exchange yield&item= YLNISQVNV [YLNISQVNV (SEQ ID NO: 201)]
50 to 75%

Fill in the blank: the reported peptide exchange yield of FLAPDNSLLLA [FLAPDNSLLLA (SEQ ID NO: 221)] is ____.
≥ 75%

Would you kindly share the measured peptide exchange yield for LLLNENESLFL [LLLNENESLFL (SEQ ID NO: 96)] ?
50 to 75%

Any idea what its peptide exchange yield is? The binder is FIFSYITAV [FIFSYITAV (SEQ ID NO: 81)]
20 to 50%
